In this section, each of the compounds is paired with its reported half-life at 50 ppm.
Test: Stability of sulfonated peracids in aqueous solution, half time
Format: physicochemical
Settings: buffer, pH 5
Method: A study was performed to determine the stability of various sulfonated peracids in aqueous solutions. The sulfonated peracids were compared under the same controlled conditions to determine how the structural differences of the selected peracids impacted stability. The sulfonated peracids studied included both mid-chain sulfonated and terminally sulfonated peracids. […] The peracid concentration over time was measured using a kinetic iodometric titration method. […]
endpoint.name: half-life at 50 ppm (days)

| line.notation | unit.descriptor | val |
| --- | --- | --- |
| O=C(CS(=O)(=O)O)OO | days | 1.54 |
| O=C(CCCCCCCCCCS(=O)(=O)O)OO | days | 3.79 |
| O=C(CCCCCS(=O)(=O)O)OO | days | 3.67 |

###

experiment: Stability of sulfonated peracids in aqueous solution, half time; format: physicochemical; settings: 50 ppm peracid, 0.05 M citrate buffer pH 5.0, ambient conditions; read-out: t1/2 (converted)
endpoint.name: half-life at 50 ppm (h)

| molecule | endpoint.name | val |
| --- | --- | --- |
| CC(=O)OO [POAA, peroxyacetic acid] | half-life at 50 ppm | 115 |
